Measured values drawn from patent US6537986B2 for this set.

# Lookup of reported melting point keyed by entry

These solved cases illustrate the format of a correct answer.
>>> readoutvalue("CC(=S)NC[C@H]1CN(c2ccc(N3CCOCC3)c(F)c2)C(=O)O1")
"157.5 to 158.5 °C"
>>> readoutvalue("O=C1O[C@@H](CNC=S)CN1c1ccc(N2CCOCC2)c(F)c1")
"150 to 155 °C (dec.)"
>>> readoutvalue("CC(=S)NC[C@H]1CN(c2ccc(N3CC[S+]([O-])CC3)c(F)c2)C(=O)O1")
"176 to 177 °C"

Q: Query (molecule): "CC(=S)NC[C@H]1CN(c2ccc3c(c2)CCN3C(=O)CO)C(=O)O1" ; field requested: melting point
Ans: 175 to 176 °C (dec.)

Q: And then "COC(=S)NC[C@H]1CN(c2ccc(N3CC[S+]([O-])CC3)c(F)c2)C(=O)O1" , what is it?
Ans: 208 to 209 °C

Q: Also "CC(=S)NC[C@H]1CN(c2ccc(N3CCCSCC3)cc2)C(=O)O1" , if possible.
Ans: 129 to 131 °C

Q: Thanks! And "CC(=S)NC[C@H]1CN(c2cc(F)c(N3CCN(C(=O)CO)CC3)c(F)c2)C(=O)O1" ?
Ans: 110 to 111 °C (dec.)

Q: Same again, this time with "CCC(=S)NC[C@H]1CN(c2ccc(N3CCOCC3)c(F)c2)C(=O)O1"
Ans: 138 to 139 °C

###

What follows is a record of MIC for S. epidermidis (SEPI 12084).
Write the answer as a number in µg/mL, unit excluded.

Study these solved cases before continuing.
>>> readoutvalue("CC(=S)NC[C@H]1CN(c2ccc(N3CCN(c4nnc(C)s4)CC3)c(F)c2)C(=O)O1")
2
>>> readoutvalue("CC(=S)NC[C@H]1CN(c2ccc(N3CCOCC3)c(F)c2)C(=O)O1")
0.25
>>> readoutvalue("CC(=O)NC[C@H]1CN(c2ccc(N3CCOCC3)c(F)c2)C(=O)O1 [reference compound]")
1
>>> readoutvalue("NC(=S)NC[C@H]1CN(c2ccc(N3CCOCC3)c(F)c2)C(=O)O1")
0.25
>>> readoutvalue("CC(=S)NC[C@H]1CN(c2ccc(N3CCC4(CC3)NC(=O)NC4=O)c(F)c2)C(=O)O1")
1

Q: Report MIC for CC(=O)NC[C@H]1CN(c2ccc(N3CCN(c4nnc(C)s4)CC3)c(F)c2)C(=O)O1 [reference compound] please.
Ans: 0.25

Q: Quick one: "CNC(=S)NC[C@H]1CN(c2ccc(N3CCOCC3)c(F)c2)C(=O)O1"
Ans: 1

Q: Further, for CC(=O)NC[C@H]1CN(c2ccc(N3CCC4(CC3)NC(=O)NC4=O)c(F)c2)C(=O)O1 [reference compound] ?
Ans: 4

###

# Test system: Moraxella catarrhalis (MCAT 30610)
# procedureSummary: MIC, standard agar dilution method
# Type: cell-based
# experimentalContext: Table II, Mueller Hinton agar, incubated overnight at 35° C.
measurementKind: MCAT 30610 MIC (µg/mL)
The reply should be a number in µg/mL, with the unit left off.

>>> readoutvalue("N#CCC(=S)NC[C@H]1CN(c2ccc(N3CCOCC3)c(F)c2)C(=O)O1 [Example 19]")
32
>>> readoutvalue("CC(=S)NC[C@H]1CN(c2ccc(N3CCS(=O)(=O)CC3)c(F)c2)C(=O)O1 [Example 28]")
1
>>> readoutvalue("COC(=S)NC[C@H]1CN(c2ccc(N3CCOCC3)c(F)c2)C(=O)O1 [Example 35]")
2

Alright, here's another compound for you.
Q: Recorded MCAT 30610 MIC for CSC(=S)NC[C@H]1CN(c2ccc(N3CCOCC3)c(F)c2)C(=O)O1 [Example 34] , please?
Ans: 4
